Test system: E. coli BW25113 tolCp lux reporter
assay_details: promoter activity interaction Z-score (Lux/OD deviation from empty-vector control); higher = stronger promoter induction by the compound
condition_context: 0.13 µg/ml; genetic background: ΔsoxS
readout_label: promoter activity interaction Z-score
Field format: numeric only.

[
  {
    "compound": "CCN1CCN(C(=O)N[C@@H](C(=O)N[C@@H]2C(=O)N3[C@@H]2SC(C)(C)[C@@H]3C(=O)O)c2ccccc2)C(=O)C1=O",
    "readout_label": "promoter activity interaction Z-score",
    "number": -0.574
  },
  {
    "compound": "CNC(C)C1CCC(N)C(OC2C(N)CC(N)C(OC3OCC(C)(O)C(NC)C3O)C2O)O1 (centres undefined)",
    "readout_label": "promoter activity interaction Z-score",
    "number": 0.974
  },
  {
    "compound": "CO[C@@]12[C@H](COC(N)=O)C3=C(C(=O)C(C)=C(N)C3=O)N1C[C@@H]1N[C@@H]12",
    "readout_label": "promoter activity interaction Z-score",
    "number": 0.264
  }
]

API: the following record is the query input.
Name the recorded promoter activity interaction Z-score for C[C@H]1c2cccc(O)c2C(=O)C2=C(O)[C@]3(O)C(=O)C(C(N)=O)=C(O)[C@@H](N(C)C)[C@@H]3[C@@H](O)[C@@H]21 . 2.09

---

System: E. coli BW25113 micFp lux reporter
assay_details: promoter activity interaction Z-score (Lux/OD deviation from empty-vector control); higher = stronger promoter induction by the compound
condition_context: 0.13 µg/ml; genetic background: Δrob
Listing of recorded promoter activity interaction Z-score by entry.

The cases that follow already have their promoter activity interaction Z-score on record.
[
  {
    "compound": "CNC(C)C1CCC(N)C(OC2C(N)CC(N)C(OC3OCC(C)(O)C(NC)C3O)C2O)O1 (centres undefined)",
    "promoter activity interaction Z-score": -0.0412
  },
  {
    "compound": "C[C@H]1c2cccc(O)c2C(=O)C2=C(O)[C@]3(O)C(=O)C(C(N)=O)=C(O)[C@@H](N(C)C)[C@@H]3[C@@H](O)[C@@H]21",
    "promoter activity interaction Z-score": 0.226
  },
  {
    "compound": "CCN1CCN(C(=O)N[C@@H](C(=O)N[C@@H]2C(=O)N3[C@@H]2SC(C)(C)[C@@H]3C(=O)O)c2ccccc2)C(=O)C1=O",
    "promoter activity interaction Z-score": -0.0193
  }
]

API: the following record is the query input.
Name the recorded promoter activity interaction Z-score for N=C(NCCCCCCNC(=N)NC(=N)Nc1ccc(Cl)cc1)NC(=N)Nc1ccc(Cl)cc1 . -0.0382

---

System: E. coli BW25113 micFp lux reporter
assay_details: promoter activity interaction Z-score (Lux/OD deviation from empty-vector control); higher = stronger promoter induction by the compound
condition_context: 3.7 µg/ml; genetic background: wild type
Listing of recorded promoter activity interaction Z-score by entry.
Field format: numeric only.

The cases that follow already have their promoter activity interaction Z-score on record.
[
  {
    "molecule": "CC[C@H]1OC(=O)[C@H](C)[C@@H](O[C@H]2C[C@@](C)(OC)[C@@H](O)[C@H](C)O2)[C@H](C)[C@@H](O[C@@H]2O[C@H](C)C[C@H](N(C)C)[C@H]2O)[C@](C)(OC)C[C@@H](C)C(=O)[C@H](C)[C@@H](O)[C@]1(C)O [Clarithromycin]",
    "system_tested": "E. coli BW25113 micFp lux reporter",
    "number": 0.345
  },
  {
    "molecule": "CC[C@H]1OC(=O)[C@H](C)[C@@H](O[C@H]2C[C@@](C)(OC)[C@@H](O)[C@H](C)O2)[C@H](C)[C@@H](O[C@@H]2O[C@H](C)C[C@H](N(C)C)[C@H]2O)[C@](C)(O)C[C@@H](C)C(=O)[C@H](C)[C@@H](O)[C@]1(C)O [Erythromycin]",
    "system_tested": "E. coli BW25113 micFp lux reporter",
    "number": 0.742
  },
  {
    "molecule": "CC1(C)S[C@@H]2[C@H](NC(=O)Cc3ccccc3)C(=O)N2[C@H]1C(=O)O [Penicillin G]",
    "system_tested": "E. coli BW25113 micFp lux reporter",
    "number": -0.333
  }
]

API: the following record is the query input.
Name the recorded promoter activity interaction Z-score for CCCCCCCCCCCCC[N+](C)(C)Cc1ccccc1 [Benzalkonium] . -0.0239
